tested on: Influenza A virus; experiment: Antiviral activity against oseltamivir-resistant Influenza A virus (A/Puerto Rico/8/1934(H1N1)) infected in MDCK cells at MOI of 10^-3 assessed as decrease in viral load after 18 hrs by immunofluorescence analysis; format: functional, organism-based
measurement_name: pIC50
pIC50 here: minus log base 10 of the concentration, concentration in moles per litre.

Req: Kindly state the measured pIC50 obtained for `COc1ccc2cc(-c3c(C(=O)O)cc(Oc4ccc(N)cc4)cc3C(=O)O)ccc2c1` with Influenza A virus.
Resp: 5.10

Req: Kindly state the measured pIC50 obtained for `COc1ccc2cc(-c3c(C(=O)[O-])cccc3C(=O)[O-])ccc2c1.[Na+].[Na+]` with Influenza A virus.
Resp: 5.06

Req: Kindly state the measured pIC50 obtained for `COc1ccc2cc(-c3c(C(=O)[O-])ccc(Oc4ccc(N)cc4)c3C(=O)[O-])ccc2c1.[Na+].[Na+]` with Influenza A virus.
Resp: 6.00
